molecular target: Recombinant human PDK1 enzyme (aa 52-556) (Homo sapiens (Human)); assay: PDK1 kinase assay; conditions: 25 μM ATP solution with gamma-P33-ATP, PDKtide substrate, 90 min at RT
Each entry below lists one item and its recorded IC50 value.
Entry rule: numbers only, all in nM.

# compound, target.or.system, endpoint.value
data = [
    ("Cc1nc2cnc3ccc(C#CCNC(=O)c4cccn([C@@H](CN)c5ccccc5)c4=O)cc3c2n1C(C)C", "Recombinant human PDK1 enzyme (aa 52-556) (Homo sapiens (Human))", 16),
    ("Cc1nc2cnc3ccc(C#CCNC(=O)c4cccn(CC5CCCCO5)c4=O)cc3c2n1C(C)C (stereo not shown)", "Recombinant human PDK1 enzyme (aa 52-556) (Homo sapiens (Human))", 1020),
    ("Cc1nc2cnc3ccc(C#CCNC(=O)c4cccn(CC5CCCOC5)c4=O)cc3c2n1C(C)C (stereo not shown)", "Recombinant human PDK1 enzyme (aa 52-556) (Homo sapiens (Human))", 202),
]

Input: Sample O=C(NCC#Cc1ccc2ncc3ncn(C4CCNCC4)c3c2c1)c1cncn(Cc2ccc(F)c(F)c2)c1=O — what was its IC50?
Output: 8

* * *

target: Recombinant human PDK1 enzyme (aa 52-556) (Homo sapiens (Human), UniProt O15530); assay: PDK1 kinase assay; conditions: 25 μM ATP solution with gamma-P33-ATP, PDKtide substrate, 90 min at RT
Sequence (O15530 52-556): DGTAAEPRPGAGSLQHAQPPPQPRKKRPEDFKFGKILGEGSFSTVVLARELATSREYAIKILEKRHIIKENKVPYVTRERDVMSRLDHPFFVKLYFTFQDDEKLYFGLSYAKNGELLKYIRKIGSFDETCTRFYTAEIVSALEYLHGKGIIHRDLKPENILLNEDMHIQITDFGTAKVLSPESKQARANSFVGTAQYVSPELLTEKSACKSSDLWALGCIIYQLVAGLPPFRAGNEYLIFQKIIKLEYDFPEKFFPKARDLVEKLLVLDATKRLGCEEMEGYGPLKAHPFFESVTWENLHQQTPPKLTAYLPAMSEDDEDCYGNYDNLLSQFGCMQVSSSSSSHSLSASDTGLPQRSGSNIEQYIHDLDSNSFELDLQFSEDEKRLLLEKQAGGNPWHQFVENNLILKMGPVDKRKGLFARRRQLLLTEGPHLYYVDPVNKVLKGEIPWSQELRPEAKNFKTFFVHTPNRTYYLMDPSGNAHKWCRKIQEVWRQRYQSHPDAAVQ
property.measured: IC50 (nM)
Entry rule: numbers only, all in nM.

# smiles.entry, IC50 / nM
records = [
    ("O=C(NCC#Cc1ccc2ncc3ncn(CCO)c3c2c1)c1cccn(Cc2ccccc2)c1=O", 68),
]

Input: Sample CN(C)CCc1nc2cnc3ccc(C#CCNC(=O)c4cncn(Cc5ccc(F)c(F)c5)c4=O)cc3c2n1C — what was its IC50?
Output: 22

Input: Sample COc1cc(C(=O)NCC#Cc2ccc3ncc4nc(C)n(C(C)C)c4c3c2)c(=O)n(Cc2ccc(F)c(F)c2)n1 — what was its IC50?
Output: 1

Input: Sample O=C(NCC#Cc1ccc2ncc3ncn(C4CCC4)c3c2c1)c1cncn(Cc2ccc(F)c(F)c2)c1=O — what was its IC50?
Output: 4

Input: Sample CN(C)Cc1nc2cnc3ccc(C#CCNC(=O)c4cncn(Cc5ccc(F)c(F)c5)c4=O)cc3c2n1C — what was its IC50?
Output: 79

Input: Sample Cc1c(C(=O)NCC#Cc2ccc3ncc4ncn(C5CCN(C(C)C)CC5)c4c3c2)c(=O)n(Cc2ccc(F)c(F)c2)n1C — what was its IC50?
Output: 45

Input: Sample Cc1nc2cnc3ccc(C#CCNC(=O)c4cccn([C@@H](C)c5ccc(F)c(F)c5)c4=O)cc3c2n1C1CCN(C(C)C)CC1 — what was its IC50?
Output: 3

Input: Sample CCOc1cc(C(=O)NCC#Cc2ccc3ncc4ncn(C(C)C)c4c3c2)c(=O)n(Cc2ccc(F)c(F)c2)n1 — what was its IC50?
Output: 5

* * *

Each entry below lists one item and its recorded log10(IC50) value.
biological target: Recombinant human PDK1 enzyme (aa 52-556) (Homo sapiens (Human)); experiment: PDK1 kinase assay; settings: 25 μM ATP solution with gamma-P33-ATP, PDKtide substrate, 90 min at RT
Would you kindly interpret these values as log10 of IC50 expressed in nM?

Sample records with log10(IC50):
# smiles.entry, log10(IC50)
measured = [
    ("Cn1c(CF)nc2cnc3ccc(C#CCNC(=O)c4cncn(Cc5ccc(F)c(F)c5)c4=O)cc3c21", 1.28),
    ("Cc1nc2cnc3ccc(C#CCNC(=O)c4cccn(Cc5ccc(F)c(F)c5)c4=O)cc3c2n1C(C)C", 0.30),
    ("Cc1cc(C(=O)NCC#Cc2ccc3ncc4nc(C)n(C(C)C)c4c3c2)c(=O)n([C@H](C)c2ccc(F)c(F)c2)n1", 0.30),
    ("Cc1nc2cnc3ccc(C#CCNC(=O)c4cc(Cl)nn(Cc5ccc(F)c(F)c5)c4=O)cc3c2n1C(C)C", 0.70),
    ("CN(C)CCCc1nc2cnc3ccc(C#CCNC(=O)c4cncn(Cc5ccc(F)c(F)c5)c4=O)cc3c2n1C", 0.78),
    ("Cc1cc(C(=O)NCC#Cc2ccc3ncc4nc(C)n(C(C)C)c4c3c2)c(=O)n([C@@H](C)c2ccc(F)c(F)c2)n1", 1.85),
]

Let us move to another entry and its log10(IC50).
Input: Sample Cc1nc2cnc3ccc(C#CCNC(=O)c4cccn([C@@H](CO)c5cccc(F)c5)c4=O)cc3c2n1[C@H]1CC[C@H](N(C)C)CC1 — what was its log10(IC50)?
Output: 0.48
